Tested on: HPPD polypeptides (wild-type SEQ ID NO:1 and mutants)
Settings: in the presence of diketonitrile (DKN), 60 μM inhibitor, high substrate concentration; kapp normalized to kapp without inhibitor
measurement label: Residual activity

Input 24 (protein, mutant HPPD polypeptide) MADLYENPMGLMGFEFIEFASPTPGTLEPIFEIMGFTKVATHRSKNVHLYRQGEINLILNNEPNSIASYFAAEHGPSVCGMAFRVKDSQKAYNRALELGAQPIHIDTGPMELNLPAIKGIGGAPLYLIDRFGEGSSIYDIDFVYLEGVERNPVGAGLKVIDHLTHNVYRGRMVYWANFYEKLFNFREARYFDIKGEYTGLTSKAMSAPDGMIRIPLNEESSKGAGQIEEFLMQFNGEGIQHVAFLTDDLVKTWDALKKIGMRFMTAPPDTYYEMLEGRLPDHGEPVDQLQARGILLDGSSVEGDKRLLLQIFSETLMGPVFFEFIQRKGDDGFGPHSFKVLFESVERDQVRRGVLTAD . Output Residual activity: 93%
